Molecular target: dopamine D1 receptor (Mus musculus, UniProt Q61616)
Sequence (Q61616 whole entry): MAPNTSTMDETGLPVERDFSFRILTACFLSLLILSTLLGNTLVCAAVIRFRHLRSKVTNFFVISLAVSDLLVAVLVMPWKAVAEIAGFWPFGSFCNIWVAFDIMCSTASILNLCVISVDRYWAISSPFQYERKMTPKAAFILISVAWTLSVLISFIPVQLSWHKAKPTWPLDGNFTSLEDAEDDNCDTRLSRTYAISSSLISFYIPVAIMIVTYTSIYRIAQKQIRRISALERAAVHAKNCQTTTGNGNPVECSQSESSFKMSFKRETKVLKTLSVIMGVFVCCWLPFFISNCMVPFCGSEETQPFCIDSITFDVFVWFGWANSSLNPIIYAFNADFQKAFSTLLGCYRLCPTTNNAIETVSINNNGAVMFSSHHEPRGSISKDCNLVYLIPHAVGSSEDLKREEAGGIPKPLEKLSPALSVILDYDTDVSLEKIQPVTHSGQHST
Assay: binding affinity for dopamine D1 receptor
Conditions: tested as the dihydrochloride salt; read-out: binding affinity for dopamine D1 receptor (K1)
quantity measured: pKi
Note on units: pKi is unitless, being -log10 of a concentration expressed in mol/L.

Hi! What's the reported pKi for "Oc1ccc2c(c1)Sc1ccccc1C(N1CCNCC1)=N2" on dopamine D1 receptor (Mus musculus, UniProt Q61616)?
6.54
